Target: Recombinant Human MMP-13 (Homo sapiens)
Construct: purchased R&D systems 511-MM
Assay: MMP-13 inhibitory activity (MMP-13 specific fluorescent substrate with quencher)
Type: biochemical
Conditions: Experimental Example 3; read-out: IC50 MMP13
property_measured: IC50

{"columns": ["molecule", "system", "IC50"],
 "data": [
  ["COCC1C(c2ccccc2)C1(NS(=O)(=O)c1ccc(-c2cc(C(F)(F)F)on2)s1)C(=O)O (stereo not drawn) [Example 2-539]", "Recombinant Human MMP-13 (Homo sapiens)", "< 100 nM"]
]}

Q: Bench note: what IC50 did O=C(NO)C1(NS(=O)(=O)c2ccc(-c3cc(C(F)(F)F)on3)s2)C2CCc3ccccc3C21 (stereo not drawn) [Example 2-486] show?
Result: < 100 nM

Q: Bench note: what IC50 did C[C@]1(c2ccccc2)C[C@@]1(NS(=O)(=O)c1ccc(N2CCOCC2)s1)C(=O)O [Example 2-421] show?
Result: ≥ 1000 nM

Q: Bench note: what IC50 did O=C(CSCC1(c2ccccc2)CC1(NS(=O)(=O)c1ccc(-c2ccc(Cl)cc2)s1)C(=O)O)N1CCOCC1 (stereo not drawn) [Example 2-359] show?
Result: < 100 nM

Q: Bench note: what IC50 did NCCCC1(c2ccccc2)CC1(NS(=O)(=O)c1ccc(-c2ccc(Cl)cc2)s1)C(=O)O (stereo not drawn) [Example 2-285] show?
Result: ≥ 1000 nM

Q: Bench note: what IC50 did CC1[C@H](c2ccccc2)[C@]1(NS(=O)(=O)c1ccc2nc(-c3ccccc3)cn2c1)C(=O)O (stereo partly drawn) [Example 2-622] show?
Result: < 1000 nM

----------
Target: aggrecanase-1 (Homo sapiens, UniProt O75173)
Sequence (O75173 213-837, species assumed): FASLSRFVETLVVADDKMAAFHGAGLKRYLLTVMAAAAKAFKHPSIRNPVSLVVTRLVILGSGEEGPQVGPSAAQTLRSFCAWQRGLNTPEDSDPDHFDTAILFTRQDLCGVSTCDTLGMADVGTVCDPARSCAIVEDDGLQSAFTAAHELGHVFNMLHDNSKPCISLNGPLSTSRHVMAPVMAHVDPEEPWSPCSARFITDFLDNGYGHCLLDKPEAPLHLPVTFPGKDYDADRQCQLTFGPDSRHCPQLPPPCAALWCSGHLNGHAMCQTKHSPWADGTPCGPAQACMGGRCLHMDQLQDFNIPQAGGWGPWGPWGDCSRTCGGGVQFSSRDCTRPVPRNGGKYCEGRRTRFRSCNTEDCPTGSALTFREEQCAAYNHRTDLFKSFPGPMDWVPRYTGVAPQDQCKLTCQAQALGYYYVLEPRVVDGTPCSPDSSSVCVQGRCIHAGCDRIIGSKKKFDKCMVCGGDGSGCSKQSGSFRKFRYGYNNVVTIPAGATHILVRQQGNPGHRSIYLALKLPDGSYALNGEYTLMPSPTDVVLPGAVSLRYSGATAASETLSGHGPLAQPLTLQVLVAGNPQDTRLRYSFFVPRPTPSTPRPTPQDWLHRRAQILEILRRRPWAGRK
Experiment: Aggrecanase-1 inhibitory action (Particle Assay, GAG release from aggrecan-containing polyacrylamide particles)
Assay type: biochemical
Details: Experimental Example 1; read-out: IC50 AG1
pIC50: −log10 of the molar value.
Recorded pIC50 by entry

Some solved entries appear below for comparison.
{"columns": ["molecule", "pIC50"],
 "data": [
  ["O=C(O)C1(NS(=O)(=O)c2ccc(-c3ccc(Cl)cc3)s2)C2CCOc3ccccc3C21 (stereo not shown)", "> 7.00"],
  ["COCc1cc(-c2ccc(S(=O)(=O)N[C@@]3(C(=O)O)C(C)[C@@H]3c3ccccc3)s2)no1 (stereo partly shown)", "> 7.00"],
  ["O=C(O)C1(NS(=O)(=O)c2ccc(-c3cc(C(F)(F)F)on3)s2)CC1c1cccc(CO)c1 (stereo not shown)", "> 6.00"]
]}

Read the next record carefully.
Q: Bench note: what pIC50 did C[C@]1(c2ccccc2)C[C@@]1(NS(=O)(=O)c1ccc(N2CCC(F)(F)CC2)s1)C(=O)O show?
Result: ≤ 6.00

----------
Recorded pIC50 by entry
Target: MMP-1 (Homo sapiens, UniProt P03956)
Sequence (P03956 100-469): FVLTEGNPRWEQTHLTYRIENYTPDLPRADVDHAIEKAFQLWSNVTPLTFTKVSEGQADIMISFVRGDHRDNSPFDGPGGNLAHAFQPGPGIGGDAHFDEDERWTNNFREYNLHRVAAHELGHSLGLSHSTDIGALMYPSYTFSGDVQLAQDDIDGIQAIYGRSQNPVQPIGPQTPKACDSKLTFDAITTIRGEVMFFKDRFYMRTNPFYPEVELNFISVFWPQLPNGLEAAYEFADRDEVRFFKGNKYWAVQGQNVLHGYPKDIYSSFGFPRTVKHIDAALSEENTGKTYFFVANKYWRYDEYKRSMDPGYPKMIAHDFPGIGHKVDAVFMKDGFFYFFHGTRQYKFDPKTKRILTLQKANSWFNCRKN
Assay: MMP-1 inhibitory action (Type I collagen Activity Measurement kit, FITC-labeled collagen type I)
Assay type: biochemical
Details: MMP-1 inhibitory action, FITC-labeled collagen type I, 37° C. for 3 hr; read-out: IC50 MMP1 (Experimental Example 2)
pIC50: −log10 of the molar value.

{"columns": ["compound", "pIC50"],
 "data": [
  ["O=C(O)[C@@]1(NS(=O)(=O)c2ccc(-c3ccc(Cl)cc3)s2)C[C@H]1c1ccccc1", "≤ 5.00"],
  ["CC1(C)COC(c2ccc(S(=O)(=O)N[C@@]3(C(=O)O)C[C@@H]3c3ccccc3)s2)=N1", "≤ 5.00"],
  ["O=C(O)[C@]1(NS(=O)(=O)c2ccc3c(c2)CN(C2CCCCC2)C3)C[C@@H]1c1ccccc1", "≤ 5.00"],
  ["CN1CC=C(c2ccc(S(=O)(=O)N[C@@]3(C(=O)O)C[C@@H]3c3ccccc3)s2)CC1", "≤ 5.00"]
]}

Q: Bench note: what pIC50 did O=C(O)C1(NS(=O)(=O)c2ccc(-c3ccc(Cl)cc3)s2)CC1Cn1nnc2ccccc2c1=O (centres unmarked) show?
Result: ≤ 5.00

Q: Bench note: what pIC50 did COCc1cc(-c2ccc(S(=O)(=O)N[C@@]3(C(=O)O)C[C@@H]3c3ccccc3)s2)no1 show?
Result: ≤ 6.00

----------
Molecular target: MMP-1 (Homo sapiens, UniProt P03956)
Assay: MMP-1 inhibitory action (Type I collagen Activity Measurement kit, FITC-labeled collagen type I)
Assay type: biochemical
Settings: Experimental Example 2; read-out: IC50 MMP1
pIC50: −log10 of the molar value.
property_measured: pIC50

{"columns": ["molecule", "property_measured", "reported_result"],
 "data": [
  ["COCc1cc(-c2ccc(S(=O)(=O)N[C@@]3(C(=O)O)C[C@]3(C)c3ccccc3)s2)no1", "pIC50", "> 6.00"],
  ["Cc1cnc(-c2ccc(S(=O)(=O)N[C@@]3(C(=O)O)C[C@]3(C)c3ccccc3)s2)o1", "pIC50", "≤ 6.00"]
]}

Read the next record carefully.
Q: Bench note: what pIC50 did O=C(O)C1(NS(=O)(=O)c2cn3cc(-c4ccc(Cl)cc4)nc3s2)CC1c1ccccc1 (stereo not shown) show?
Result: ≤ 5.00

----------
Molecular target: MMP-1 (Homo sapiens)
Assay: MMP-1 inhibitory action (Type I collagen Activity Measurement kit, FITC-labeled collagen type I)
Assay type: biochemical
Details: Experimental Example 2; read-out: IC50 MMP1
property_measured: IC50

Some solved entries appear below for comparison.
{"columns": ["compound", "system", "property_measured", "reported_result"],
 "data": [
  ["O=C(O)C1(NS(=O)(=O)c2ccc(-c3ccc(Cl)cc3)s2)CC1(COCCO)c1ccccc1 (centres unmarked) [Example 2-347]", "MMP-1 (Homo sapiens)", "IC50", "≥ 10 µM"],
  ["O=C(CCc1ccc([C@H]2C[C@@]2(NS(=O)(=O)c2ccc(-c3cc(C(F)(F)F)on3)s2)C(=O)O)cc1)N1CCOCC1 [Example 2-279]", "MMP-1 (Homo sapiens)", "IC50", "< 1 µM"],
  ["C[C@]1(c2ccccc2)C[C@@]1(NS(=O)(=O)c1ccc(-c2cccc(N)c2)s1)C(=O)O [Example 2-452]", "MMP-1 (Homo sapiens)", "IC50", "< 1 µM"],
  ["COCCN1CCN(S(=O)(=O)N[C@@]2(C(=O)O)C(C)[C@@H]2c2ccccc2)CC1 (some centres unmarked) [Example 2-534]", "MMP-1 (Homo sapiens)", "IC50", "≥ 1 µM"]
]}

Q: Bench note: what IC50 did C[C@]1(c2ccccc2)C[C@@]1(NS(=O)(=O)c1ccc(-n2cc(C(F)(F)F)cn2)cc1)C(=O)O [Example 2-506] show?
Result: < 1 µM

Q: Bench note: what IC50 did Cc1cc(C2CC2(NS(=O)(=O)c2ccc(-c3cc(C(F)(F)F)on3)s2)C(=O)O)no1 (centres unmarked) [Example 2-313] show?
Result: ≥ 1 µM

Q: Bench note: what IC50 did O=C(O)C1(NS(=O)(=O)c2ccc(OCc3ccc(Cl)cc3Cl)cc2)C2CCc3ccccc3C21 (centres unmarked) [Example 2-355] show?
Result: ≥ 1 µM

Q: Bench note: what IC50 did CC1(c2ccc(Cl)cc2)CC1(NS(=O)(=O)c1ccc(-c2cc(C(F)(F)F)on2)s1)C(=O)O (centres unmarked) [Example 2-608] show?
Result: < 1 µM

Q: Bench note: what IC50 did CC(O)c1cnn(-c2ccc(S(=O)(=O)N[C@@]3(C(=O)O)C(C)[C@@H]3c3ccccc3)s2)c1 (some centres unmarked) [Example 2-547] show?
Result: < 0.1 µM

Q: Bench note: what IC50 did CC1[C@H](c2ccccc2)[C@]1(NS(=O)(=O)c1ccc(-c2cn(C)cn2)s1)C(=O)O (some centres unmarked) [Example 2-450] show?
Result: ≥ 10 µM

Q: Bench note: what IC50 did CC1[C@H](c2ccccc2)[C@]1(NS(=O)(=O)c1ccc(-c2cc(C3CC3)on2)s1)C(=O)O (some centres unmarked) [Example 2-433] show?
Result: < 1 µM

----------
Recorded IC50 by entry
Molecular target: aggrecanase-1 (Homo sapiens, UniProt O75173)
Assay: Aggrecanase-1 inhibitory action (Particle Assay, GAG release from aggrecan-containing polyacrylamide particles)
Assay type: biochemical
Conditions: aggrecanase-1 inhibitory action; read-out: IC50 AG1 (Experimental Example 1)

Some solved entries appear below for comparison.
{"columns": ["compound", "system", "IC50"],
 "data": [
  ["O=C(O)C1(NS(=O)(=O)N2CC=C(c3ccccc3)CC2)CC1c1ccccc1 (stereo not drawn) [Example 2-148]", "aggrecanase-1 (Homo sapiens, UniProt O75173)", "≥ 1 µM"],
  ["Cc1ncc(-c2ccc(S(=O)(=O)NC3(C(=O)O)CC3c3ccccc3)s2)o1 (stereo not drawn) [Example 2-79]", "aggrecanase-1 (Homo sapiens, UniProt O75173)", "≥ 10 µM"],
  ["O=C(O)C1(NS(=O)(=O)c2ccc(-c3ccc(Cl)cc3)s2)CC1c1cccc(NS(=O)(=O)c2cccnc2)c1 (stereo not drawn) [Example 1-136]", "aggrecanase-1 (Homo sapiens, UniProt O75173)", "< 0.1 µM"],
  ["CC1(C)COC(c2ccc(S(=O)(=O)N[C@@]3(C(=O)O)C[C@@H]3c3ccccc3)s2)=N1 [Example 2-54]", "aggrecanase-1 (Homo sapiens, UniProt O75173)", "≥ 1 µM"],
  ["C[C@]1(c2ccccc2)C[C@@]1(NS(=O)(=O)c1ccc(-c2cc(C(F)(F)F)on2)s1)C(=O)O [Example 2-6]", "aggrecanase-1 (Homo sapiens, UniProt O75173)", "< 0.1 µM"],
  ["O=C(O)C1(NS(=O)(=O)N2CCN(c3ncc(Br)cn3)CC2)CC1c1ccccc1 (stereo not drawn) [Example 2-155]", "aggrecanase-1 (Homo sapiens, UniProt O75173)", "≥ 1 µM"],
  ["O=C(Nc1cccc(C2CC2(NS(=O)(=O)c2ccc(-c3ccc(Cl)cc3)cc2)C(=O)O)c1)c1ccccn1 (stereo not drawn) [Example 1-62]", "aggrecanase-1 (Homo sapiens, UniProt O75173)", "< 1 µM"],
  ["O=C(O)C1(NS(=O)(=O)c2ccc(-c3ccc(Cl)cc3)cc2)CC1c1cccc(NCc2cccnc2)c1 (stereo not drawn) [Example 1-3]", "aggrecanase-1 (Homo sapiens, UniProt O75173)", "< 0.1 µM"]
]}

Read the next record carefully.
Q: Bench note: what IC50 did CCC1(c2ccccc2)CC1(NS(=O)(=O)c1ccc(-c2ccc(Cl)cc2)s1)C(=O)O (stereo not drawn) [Example 2-129] show?
Result: < 1 µM
